# Tested on: SNB-19 CNS
# method_notes: NCI tumour cell line growth inhibition, 48 h
assay_endpoint: GI50

Use these answered entries as a reference point.
• O=S(=O)(NC1=NCCN1C(=S)SN1CCn2c1nsc2=S)c1ccc(Br)cc1 = > 100 µM
• Cn1c([N+](=O)[O-])cnc1/C=C1\Oc2ccccc2C1=O = 1.47 µM
• CCN(CC)CCCC(C)Nc1c2ccc(Cl)cc2nc2ccc(OC)cc12 (stereo not drawn) = 1.96 µM
• COc1ccc(CN(C)c2ccc(CO)c(Cl)c2)cc1 = 34 µM
• COC(=O)c1cc2c(cc1Cl)SC(N(N(C)C)S(=O)(=O)c1ccc(Br)s1)=NS2(=O)=O = 21.2 µM

Query: I'd like to know its GI50. The molecule in question is NOCC(=O)O
Response: > 100 µM

Query: Same again, this time with Cc1ccccc1NC(=O)N/C(N)=N/c1nc(-c2cccc([N+](=O)[O-])c2)cs1
Response: 3.29 µM

Query: Queued: Cc1cc(I)cc(CN(C)CCCN2CCSCC2)c1O
Response: 25.6 µM

====

# System: MCF7 breast
# method_notes: NCI tumour cell line growth inhibition, 48 h
assay_endpoint: TGI

Query: Request the reported TGI associated with Nc1ccc(N(S(=O)(=O)c2ccccc2)S(=O)(=O)c2ccccc2)c(Cl)c1
Response: > 100 µM

Query: What about O=C(Nc1cccc2ccccc12)Nn1cnnc1 ?
Response: > 100 µM

Query: Thanks! And OC1(CCc2ccccc2)COC(C(F)(F)F)(C(F)(F)F)C1 (stereo not given) ?
Response: > 100 µM

Query: Do the same for CC1(C)CN=C(c2ccc3c(c2)Cc2cc(C4=NCC(C)(C)N4)ccc2-3)N1 please
Response: 86.5 µM

Query: O=C1c2ccccc2-c2c1c1ccccc1c(=O)n2CCCNCCCn1ccnc1 ?
Response: 12.7 µM

Query: And then c1ccc2c(C3CCN(CCN4CCOCC4)C3)c[nH]c2c1 (stereo not given) , what is it?
Response: > 100 µM

Query: Now the compound CCC(C)C(C(=O)N/N=C1/SCC(=O)N1c1ccccc1)C(=O)N/N=C1/SCC(=O)N1c1ccccc1 (stereo not given)
Response: > 100 µM

Query: Same lookup for N#CC(C#N)N=Cc1ccncc1 , please.
Response: > 100 µM

Query: Queued: CO[C@H]1c2cccc3cccc(c23)[C@@H]1n1[nH]c(=O)n(C(C)(C)C)c1=O
Response: > 100 µM

Query: Request: O=c1c(C=Nc2ccccc2Cl)c(O)n(-c2ccccc2)c(=O)n1-c1ccccc1
Response: > 100 µM

====

Here, each record is paired with measured TGI data.
# Tested on: SK-MEL-28 melanoma
# method_notes: NCI tumour cell line growth inhibition, 48 h
# output: bare number, implied unit µM

Some compounds with recorded TGI:
• COC1CC(C)C(OC)C2=CC(=O)C=C(NC(=O)/C(C)=C/C=C\C(C)C(OC(N)=O)/C(C)=C\C(C)C1OC)C2=O (stereo not given) = 1.05
• COc1ccc([N+](=O)[O-])c2c(NCCCN(C)C)c3ccccc3nc12 = 13.4

Query: Item O=C(Nc1ccc(Cl)cc1)C(=O)C(C(=O)c1ccccc1-c1ccccc1)C1OC(=O)c2ccccc21 (stereo not given) with SK-MEL-28 melanoma - TGI?
Response: 36.6
